# Test details: gradient 5% acetonitrile 3 min, to 50% in 2 min, to 85% in 15 min, held 3 min, 100 µL/min
# Details: column: Zorbax Extend-C18 2.1 x 50 mm; eluents: water / acetonitrile, 0.1% formic acid
Kindly state RP-LC retention time for each of the entries shown.
Provide only the numeric value, understood in s.

[ask] Recall and state the measured RP-LC retention time for `CC1=C(c2ccc(C)cc2)S(=O)(=O)N=C1N1CCCN(C(=O)Cc2ccsc2)CC1` .
[reply] 847

[ask] Recall and state the measured RP-LC retention time for `COc1cccc(NC(=O)C2CCN(S(=O)(=O)c3cc(-c4noc(C)n4)cs3)CC2)c1` .
[reply] 883

[ask] Recall and state the measured RP-LC retention time for `COc1ccc(Cc2nnc3sc(-c4ccccc4OC)nn23)cc1` .
[reply] 976

[ask] Recall and state the measured RP-LC retention time for CCC(C)NC(=O)N1CCCN(C2=NS(=O)(=O)C(c3ccc(F)cc3)=C2C)CC1 (configuration not stated) .
[reply] 787

[ask] Recall and state the measured RP-LC retention time for `COc1ccc(-c2nc(Nc3nc(C)cc(C)n3)sc2CCC(=O)O)cc1` .
[reply] 702

[ask] Recall and state the measured RP-LC retention time for `NC(=O)c1n[nH]c2c1CCCCCC2` .
[reply] 644

[ask] Recall and state the measured RP-LC retention time for `CCOc1ccc2nc(Nc3ncc4c(n3)CCCC4=O)nc(C)c2c1` .
[reply] 588

[ask] Recall and state the measured RP-LC retention time for CCNC(=O)C1CCCN(c2nc3ncn(CC(=O)Nc4cc(F)ccc4C)c(=O)c3s2)C1 (configuration not stated) .
[reply] 689

[ask] Recall and state the measured RP-LC retention time for `Cc1ccc(Nc2cc(C)nc3ccnn23)cc1` .
[reply] 620

[ask] Recall and state the measured RP-LC retention time for `CN1C(=O)c2cccnc2Sc2cc(NC(=O)C3(c4ccccc4)CC3)ccc21` .
[reply] 875

[ask] Recall and state the measured RP-LC retention time for `c1cc(-c2noc(-c3cccs3)n2)cc(-c2ccn[nH]2)c1` .
[reply] 903

[ask] Recall and state the measured RP-LC retention time for `CNCc1ccc(-c2cc(Cl)cc(Cl)c2)o1` .
[reply] 658

[ask] Recall and state the measured RP-LC retention time for `O=C(N[C@H]1C[C@@H]2C[C@H]1N(C(=O)Cc1c(F)cccc1Cl)C2)c1cccnc1` .
[reply] 695

[ask] Recall and state the measured RP-LC retention time for CCCCN1CCN(C(=O)C2CCCN(c3cnc4nccnc4c3)C2)CC1 (configuration not stated) .
[reply] 569

[ask] Recall and state the measured RP-LC retention time for `Cc1ccc2c(=O)c(C(=O)Nc3ccc(C)c(C)c3)c[nH]c2n1` .
[reply] 894

[ask] Recall and state the measured RP-LC retention time for `O=C(NCc1ccco1)N1CCN(Cc2nc3cccnc3n2-c2ccccc2)CC1` .
[reply] 620

[ask] Recall and state the measured RP-LC retention time for CCC(=O)NCc1csc(C2CCCN(C(=O)COc3ccccc3)C2)n1 (configuration not stated) .
[reply] 710
